Assay: folding stability dG unfold from chymotrypsin proteolysis; higher = more stable
quantity: folding stability dG unfold (kcal/mol)

INSERT INTO measurements (record_sequence, reported) VALUES
  ('SAGGSAGGSAGGEEEYVTLTIKVYDPKTREPVKEITIVLPKKNMTPEQLRELLKELGIEVSAGGSAGGSAGG [r7_903_TrROS_Hall]', 3.01),
  ('SAGGMFKGPDGNWKTYKTTKPGLTKSDIGPFVEELVEKFLKDHGLNPENVSAKAEYNPSTGTVNVYVGSAGG [r13_913_TrMRF]', 0.783),
  ('SAGGSAMDPSKLVRKKVRFRVVDPNGKPLGEIDIEVEFPGGVSEEEAEELLRELIAALAPPAGVEGSAGGSA [r15_310_TrMRF]', 3.02);
